Taken from paper PMC9001717.

// values below are reported IC50
Target: hSR Y121F (Homo sapiens, UniProt Q9GZT4, C2D/C6D/Y121F)
Construct: (His)6 (C); made in house; host or cells: E. coli BL21-CodonPlus (DE3)-RIL
Sequence (Q9GZT4 whole entry C2D/C6D/Y121F): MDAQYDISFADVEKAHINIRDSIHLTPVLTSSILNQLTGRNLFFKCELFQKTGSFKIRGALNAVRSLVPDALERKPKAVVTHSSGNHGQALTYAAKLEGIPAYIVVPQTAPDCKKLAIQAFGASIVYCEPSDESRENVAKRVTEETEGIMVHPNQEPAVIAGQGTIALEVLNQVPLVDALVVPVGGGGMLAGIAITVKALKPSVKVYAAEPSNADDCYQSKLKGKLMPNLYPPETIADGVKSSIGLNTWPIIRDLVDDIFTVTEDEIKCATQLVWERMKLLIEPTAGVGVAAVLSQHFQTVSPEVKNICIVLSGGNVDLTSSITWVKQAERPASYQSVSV
Test: L- to D-Ser racemisation coupled luminescence assay, Y121F mutant
Type: biochemical
Details: 1 mM ATP, 2 mM L-serine, 16.7% DMSO, ~ = extrapolated

- molecule: "Nc1ccccc1N1CCOCC1"
  assayed target: "hSR Y121F (Homo sapiens, UniProt Q9GZT4, C2D/C6D/Y121F)"
  IC50: "0.0123 mM"
- molecule: "O=C(NCc1nc2ccccc2[nH]1)c1ccco1"
  assayed target: "hSR Y121F (Homo sapiens, UniProt Q9GZT4, C2D/C6D/Y121F)"
  IC50: "~7.8 mM"
- molecule: "O=C(CCCc1ccccc1)N1CCOCC1"
  assayed target: "hSR Y121F (Homo sapiens, UniProt Q9GZT4, C2D/C6D/Y121F)"
  IC50: "~20.7 mM"

Quick check: IC50 on hSR Y121F (Homo sapiens, UniProt Q9GZT4, C2D/C6D/Y121F), item OCc1ccc(-n2cnc3ccccc32)cc1 ? ~7.4 mM

Quick check: IC50 on hSR Y121F (Homo sapiens, UniProt Q9GZT4, C2D/C6D/Y121F), item CC(=O)NC1CNc2ccccc2C1 (stereo not drawn) ? 0.0032 mM

Quick check: IC50 on hSR Y121F (Homo sapiens, UniProt Q9GZT4, C2D/C6D/Y121F), item NCc1cc(-c2ccccc2)no1 ? ~29.9 mM
